# protocol-notes: modulators of HCV replicon luciferase signal, primary screen, HCV replication inhibitor project, Huh7 cells, luciferase reporter (AID 1109);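 note: huh7 hepatoma cells harbouring a luciferase neomycin HCV replicon reporter; luciferase luminescence as measure of HCV replicon replication; test concentration not given here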
# assay-setup: 48 h, higher = more signal
Listing of entries alongside the reported z-score.

# compound, z-score
records = [
    ("CCCCCCc1nc(Cc2cc(OC)c(OC)c(OC)c2)c(C)c2c1[Si](C(C)C)(C(C)C)OC2", -0.715),
    ("CN1C2C=C(c3ccc(CO)cc3)C(C3C(=O)N(C(N)=O)C(=O)C32)C1C1CC1 (stereo not drawn)", -0.31),
    ("CN1C(=O)C2C=CC(C(O)COCc3ccccc3)N(Nc3ccc([N+](=O)[O-])cc3[N+](=O)[O-])C2C1=O (stereo not drawn)", -0.295),
    ("CC(C)C(=C=CC[C@H](O)c1cccc(OCCO)c1)C[C@H](O)c1ccccn1", -0.423),
    ("CC(C)c1ccc(NN2C(C(O)C(C)c3ccccc3)C=CC3C(=O)N(c4ccccc4)C(=O)C32)cc1 (stereo not drawn)", 1.63),
    ("C=CC[C@H](OC(=O)Nc1ccc(SC)cc1)c1ccc(O)c(F)c1", 0.599),
    ("CN(C)CCCCNC(=O)[C@H]1C[C@H]2C(=O)N[C@@H](CCCCN(C)C)C(=O)N2[C@H]1c1ccc(O)cc1", 0.448),
    ("C=CCC(OC(C)=O)[C@@H]1[C@@H](N(Cc2cccc3ccccc23)C(=O)c2ccc(C)cc2)c2cc(OCCCO)ccc2N1C(=O)Cc1ccc2ccccc2c1 (stereo partly drawn)", 0.198),
    ("COCCOC(=O)N1C(=O)[C@@]2(c3ccccc31)[C@H](C(=O)Nc1nc3ccccc3s1)[C@H]1C(=O)O[C@H](c3ccccc3)[C@H](c3ccccc3)N1[C@@H]2c1ccccc1OCCO", -1.83),
    ("C=CC[C@]1(C(=O)NCC(O)CO)N=C(c2ccc(OCCCO)cc2)O[C@H]1c1ccccc1CN=[N+]=[N-] (stereo partly drawn)", -1.06),
    ("[N-]=[N+]=NCc1ccccc1C[C@@]1(C(N)=O)N=C(c2ccc(OCCCO)cc2)O[C@@H]1c1ccccc1N=[N+]=[N-]", -0.489),
    ("CCCCC(=C=CC[C@@H](O)c1ccccc1OCCO)C[C@@H](O)c1ccccn1", -1.61),
    ("CCOC(=O)C[C@H]1[C@H](OC(=O)c2ccc(-c3ccccc3)cc2)[C@@H](NC(=O)c2ccc(-c3ccccc3)cc2)c2cc(OCCCO)ccc2N1C(=O)c1ccccc1", -1.22),
    ("C=CCOC(=O)[C@@H]1[C@H]2C(=O)O[C@H](c3ccccc3)[C@H](c3ccccc3)N2[C@H](c2ccc(OCCOC(=O)[C@H]3C[C@H]4C(=O)N[C@@H](CCCCN(C)C)C(=O)N4[C@H]3c3cccc(OCCO)c3)cc2)[C@@]12C(=O)Nc1ccccc12", -0.772),
    ("C=C(COC)/C(=C/C[C@@H](OC(C)=O)c1cccc(OCCO)c1)c1cnc2ccccc2c1", -1.73),
    ("COc1ccc(C(=O)Nc2cccc(CN3C(=O)[C@]4(O[C@H](CC(=O)N(CCO)Cc5ccccc5)[C@@H]([Si](C)(C)c5ccc(OC)cc5)[C@@H]4C)c4ccccc43)c2)cc1", -3.73),
    ("COC(=O)C1=CC(CCCO)=CC(c2ccc(CN3CCCC3)cc2)N(C)C=C1C(=O)OC (stereo not drawn)", -0.979),
    ("CO[C@H]1O[C@H](CO)[C@@H](OC(=O)Nc2cccc(F)c2)[C@H](OC(=O)Nc2ccc3c(c2)OCO3)[C@@H]1OC(=O)Nc1ccc2c(c1)OCO2", -1.14),
    ("COC(=O)[C@@]1(Cc2ccccc2)[C@H]2c3cc(C(=O)N(C)C)n(Cc4nc5ccccc5[nH]4)c3C[C@H]2CN1C(=O)c1ccccc1", 0.401),
    ("COc1cc2c(cc1OC)CN(C(=O)[C@@H]1[C@H]3C(=O)O[C@H](c4ccccc4)[C@H](c4ccccc4)N3[C@H](c3ccc(O)cc3)[C@@]13C(=O)Nc1ccc(C#CC4=CCCCC4)cc13)CC2", -1.49),
    ("CC1CC/C=C\\[C@H]2OC34C=CCN(C(C)C)C(=O)[C@H]3N(C(C)CO)C(=O)[C@@H]4C2C(=O)O1 (stereo partly drawn)", -1.43),
    ("[N-]=[N+]=Nc1ccccc1C[C@@]1(C(=O)NCc2ccccc2)N=C(c2ccc(OCCCO)cc2)O[C@@H]1c1ccccc1", -1.76),
    ("COC(=O)C(CC#Cc1ccc2c(c1)[C@]1(C(=O)N2)[C@H](C(=O)N2CCN(c3ncccn3)CC2)[C@H]2C(=O)O[C@H](c3ccccc3)[C@H](c3ccccc3)N2[C@@H]1c1ccc(O)cc1)C(=O)OC", -1.66),
]

----------
# target-or-system: Dihydroorotate dehydrogenase (quinone), mitochondrial (Plasmodium falciparum (isolate 3D7))
# protocol-notes: PfDHODH enzyme inhibitors, primary screen, biochemical, C-terminal His tag, absorbance 600 nm (AID 1175);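 note: recombinant parasite enzyme with a five histidine tag at its C terminus; test concentration not given here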
# assay-setup: DCIP absorbance 600 nm, higher = more signal, called active from +8 up or from −8 down
Items are presented alongside their recorded composite z-score.

# compound, composite z-score
records = [
    ("C=C(C(=O)CC[C@@H](OC(=O)c1ccccc1-c1ccccc1C(=O)O)c1cccc(OCCO)c1)C(C)C", -1.26),
    ("[N-]=[N+]=Nc1ccccc1C[C@@]1(C(=O)NCc2ccccc2)N=C(c2ccc(OCCCO)cc2)O[C@@H]1c1ccccc1", 0.889),
    ("COC(=O)c1c2oc(c1C(=O)OC)C(=O)N[C@H](Cc1ccccc1)Cn1cc(nn1)C1(CCCCC1)NC(=O)N[C@H](CO)CC2", -0.174),
    ("O=C1OCCC/C=C\\[C@H]2OC34C=CCN(Cc5ccccc5)C(=O)[C@H]3N(CCO)C(=O)[C@@H]4C12 (some centres not stated)", -0.0771),
    ("CCCCCN1CC=CC23O[C@@H]4/C=C\\CCCOC(=O)C4[C@H]2C(=O)N(CCCCCO)[C@@H]3C1=O (some centres not stated)", -0.869),
    ("O=C(NC1CC1)[C@@H]1c2ccccc2C(=O)N(C2CCCCC2)[C@H]1c1ccc(CO)cc1", -0.245),
    ("CC1(C)OB(/C=C\\CC(OC(=O)c2ccncc2)c2ccccc2)OC1(C)C (configuration not stated)", -0.413),
]

----------
# System: Plasmodium falciparum Sir2 (PF13_0152, Sir2A)
# protocol-notes: pfSir2 binders on small-molecule microarrays, primary screen, biochemical, small-molecule microarray, 635 nm fluorescence (AID 1098);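 note: score merges spot fluorescence intensity with its signal-to-noise ratio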
# assay-setup: small-molecule microarray binding, fluorescence 635 nm; higher = more signal
# maps each entry to its composite z-score

# molecule, composite z-score
data = [
    ("COCCCNC(=O)[C@@]1(c2ccc([N+](=O)[O-])cc2)CC(=O)N(C2CCCCC2)[C@@H]1c1ccc(CO)cc1I", 1.62),
    ("CCOC(=O)C1=C[C@@H](C(C)(C)C)N(S(=O)(=O)c2ccc(C)cc2)[C@H]1c1ccc(OC)cc1", 0.463),
    ("OCCCc1cc[n+](Cc2cc3c(cc2Br)OCO3)cc1", -0.837),
    ("CCCCC=C[C@@H](NC(=O)C(C)(C)C)c1ccccc1", 0.641),
    ("CCN1C(=O)C2CC(=O)C3C(CN(S(=O)(=O)c4ccc(C)cc4)C3c3ccc(C)cc3)C2C1=O (stereo unspecified)", 0.959),
    ("COCCCNC(=O)[C@@]1(Cc2ccccc2I)c2ccccc2C(=O)N(Cc2ccccc2OC)[C@H]1c1ccc(CO)cc1", -0.347),
]

----------
# target-or-system: Streptavidin (Streptomyces avidinii)
# protocol-notes: streptavidin binders on small-molecule microarray, primary screen, artefact control for SMM compound annotation, biophysical, 635/667 nm fluorescence (AID 1147);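 note: signal reflects streptavidin binding to arrayed compounds as a control protein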
# assay-setup: streptavidin binding, higher = more signal

# compound, composite z-score
records = [
    ("COCCOC(=O)N1C(=O)[C@@]2(c3cc(C#CCC(C(=O)OC)C(=O)OC)ccc31)[C@H](C(=O)N1CCc3cc(OC)c(OC)cc3C1)[C@H]1C(=O)O[C@H](c3ccccc3)[C@H](c3ccccc3)N1[C@@H]2c1ccccc1OCCO", 0.593),
    ("[N-]=[N+]=Nc1ccccc1C[C@@]1(C(=O)NCC(O)CO)N=C(c2ccc(OCCCO)cc2)O[C@@H]1c1ccccc1N=[N+]=[N-] (stereo partly drawn)", 1.23),
    ("COC(=O)c1ccc(OC)c(/C=C\\CC(OC(=O)c2ccncc2)c2ccccc2)c1 (stereo not drawn)", 1.79),
    ("Cc1ccc(N2C(=O)c3ccccc3[C@@H](C(=O)NCCN3CCOCC3)[C@@H]2c2ccc(CO)cc2)nc1", -1.42),
    ("C=CC[C@]1(C(=O)NCC(O)CO)N=C(c2ccc(OCCCO)cc2)O[C@H]1c1ccccc1CN=[N+]=[N-] (stereo partly drawn)", 0.184),
    ("COC(=O)[C@@]1(Cc2ccc(F)cc2)[C@H]2c3cc(C(=O)N(C)C)n(Cc4cccc5ccccc45)c3C[C@H]2CN1C(=O)c1ccccc1", 0.0609),
    ("C=C(COC)/C(=C/C[C@@H](OC(=O)c1ccncc1)c1ccccc1OCCO)c1cnc2ccccc2c1", 1.93),
    ("O=C1O[C@H](c2ccccc2)[C@H](c2ccccc2)N2[C@H]1[C@@H](C(=O)N1CCN(c3ncccn3)CC1)[C@]1(C(=O)Nc3ccc(C#CC4(O)CCCCCC4)cc31)[C@H]2c1ccc(O)cc1", -0.0103),
]
